experiment: Cytotoxicity against human HuH7 cells after 4 hrs by CellTitre-Blue assay; format: cell-based, Huh-7
Rule: measured CC50 at 4 h below 10 µM gets MET; anything equal to or greater than 10 µM gets NOT MET.

Example entries begin here.
compound="COC(=O)N1CC23CCC2(C1)CN(C(=O)[C@]12C[C@H]1c1cc(OC)ccc1-c1c(C4CCCCC4)c4ccc(C(=O)NS(=O)(=O)C(C)C)cc4n1C2)C3 (stereo partly specified)" assigned_label=MET
compound="COc1ccc2c(c1)[C@@H]1C[C@]1(C(=O)N1CC34COCC3(CN(C(C)=O)C4)C1)Cn1c-2c(C2CCCCC2)c2ccc(C(=O)NS(=O)(=O)C(C)C)cc21 (stereo partly specified)" assigned_label="NOT MET"
compound="COc1ccc2c(c1)[C@@H]1C[C@]1(C(=O)N1CC34CCCC3(CN(C)C4)C1)Cn1c-2c(C2CCCCC2)c2ccc(C(=O)NS(=O)(=O)C(C)C)cc21 (stereo partly specified)" assigned_label="NOT MET"
compound="COc1ccc2c(c1)[C@@H]1C[C@]1(C(=O)N1CC34CCC3(CN(C(=O)N3CCOCC3)C4)C1)Cn1c-2c(C2CCCCC2)c2ccc(C(=O)NS(=O)(=O)C(C)C)cc21 (stereo partly specified)" assigned_label="NOT MET"

Hello, I'm reviewing records and need to know if CC50 at 4 h of CCOCCN1CC23COCC2(C1)CN(C(=O)[C@]12C[C@H]1c1cc(OC)ccc1-c1c(C4CCCCC4)c4ccc(C(=O)NS(=O)(=O)N(C)C)cc4n1C2)C3 (stereo partly specified) is below 10 µM. Could you check?
NOT MET

Data provenance is ChEMBL document CHEMBL3232986.
